molecular target: human mGluR5a receptor (Homo sapiens, UniProt P41594); experiment: Cell-based functional assay (Ca2+ mobilization, FDSS), potentiation of glutamate EC20 response; details: H10H cell line; potentiation in presence of glutamate EC20; concentration in mol/L
Sequence (P41594 21-1180 isoform P41594-2 limits assumed): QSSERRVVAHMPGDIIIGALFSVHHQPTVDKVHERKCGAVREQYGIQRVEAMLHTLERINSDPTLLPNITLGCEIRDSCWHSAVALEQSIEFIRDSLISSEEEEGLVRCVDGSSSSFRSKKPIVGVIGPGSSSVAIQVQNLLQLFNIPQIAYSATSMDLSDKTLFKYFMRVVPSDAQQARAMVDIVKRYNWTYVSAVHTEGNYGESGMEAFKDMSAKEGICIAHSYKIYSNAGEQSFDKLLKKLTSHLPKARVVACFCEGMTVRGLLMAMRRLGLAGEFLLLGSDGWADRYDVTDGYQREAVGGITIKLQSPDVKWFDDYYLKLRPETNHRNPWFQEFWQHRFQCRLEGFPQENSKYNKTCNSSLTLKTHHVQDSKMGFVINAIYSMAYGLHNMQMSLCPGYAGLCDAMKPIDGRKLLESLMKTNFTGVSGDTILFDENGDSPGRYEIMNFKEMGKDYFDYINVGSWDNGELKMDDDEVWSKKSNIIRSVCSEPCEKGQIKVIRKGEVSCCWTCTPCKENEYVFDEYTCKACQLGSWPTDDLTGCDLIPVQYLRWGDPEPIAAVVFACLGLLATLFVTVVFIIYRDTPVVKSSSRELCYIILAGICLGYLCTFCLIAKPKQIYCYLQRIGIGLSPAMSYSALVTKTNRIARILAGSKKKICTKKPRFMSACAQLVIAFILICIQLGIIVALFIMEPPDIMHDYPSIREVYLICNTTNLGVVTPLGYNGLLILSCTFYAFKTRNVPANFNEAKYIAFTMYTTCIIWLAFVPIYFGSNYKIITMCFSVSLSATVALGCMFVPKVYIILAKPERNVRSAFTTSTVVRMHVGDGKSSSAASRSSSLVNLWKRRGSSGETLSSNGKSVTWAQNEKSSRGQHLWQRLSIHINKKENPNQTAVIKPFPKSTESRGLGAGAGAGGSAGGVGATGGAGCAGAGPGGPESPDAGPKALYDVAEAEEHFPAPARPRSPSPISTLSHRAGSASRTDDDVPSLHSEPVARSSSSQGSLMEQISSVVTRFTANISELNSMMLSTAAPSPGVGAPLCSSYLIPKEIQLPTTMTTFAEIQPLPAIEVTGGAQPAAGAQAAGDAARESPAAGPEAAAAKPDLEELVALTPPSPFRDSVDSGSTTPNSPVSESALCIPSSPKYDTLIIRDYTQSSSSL
readout_type: EC50 (nM)
Write down the numeric answer in nM and omit the unit.

### Prompt What value of EC50 has been recorded for this entry: "O=C1c2cc(OCc3ccccc3)nn2CCN1c1cccc(F)c1"
### Response 115

### Prompt Could you tell me which EC50 is on file for "C[C@@H]1Cn2nc(OCc3ccccc3)cc2C(=O)N1c1ccc(F)cc1" ?
### Response 87.1

### Prompt Tell me the measured EC50 of "COc1cccc(CN2CCn3nc(OCc4ccccc4)cc3C2=O)c1F" , please.
### Response 363

### Prompt Consider the compound CC1CN(Cc2ccccc2)C(=O)c2cc(OCc3ccccc3)nn21 (single isomer, unassigned) and give its measured EC50.
### Response 102

---

target: human mGluR5a receptor (Homo sapiens); assay: Cell-based functional assay (Ca2+ mobilization, FDSS), potentiation of glutamate EC20 response; conditions: H10H cell line; maximum % effect in the concentration-response curve as percent of maximal glutamate response; glutamate EC20
readout_type: Emax (%)
Give the number; % is assumed, so skip it.

### Prompt Consider the molecule "O=C1c2cc(OCc3ccccc3)nn2CCN1CC1CCC1" and give its measured Emax.
### Response 52

### Prompt Given the entry "N#Cc1cccc(COc2cc3n(n2)CCN(c2ccc(F)cc2)C3=O)c1" , report its measured Emax.
### Response 31

### Prompt For the molecule shown here, "COc1cccc(F)c1CN1CCn2nc(OCc3ccccc3)cc2C1=O" , give the reported Emax.
### Response 52

### Prompt Fill in: Emax of O=C1c2cc(OCc3ccccc3)nn2CCCN1CC1CC1(F)F (stereo not shown) is ___
### Response 20

### Prompt Suppose we examine the molecule "O=C1c2cc(OCc3ccccc3)nn2CCCN1CC1CC1" ; what Emax value has been reported?
### Response 23

### Prompt Which Emax is listed for "Cc1nc(N2CCCn3nc(OCc4ccccc4)cc3C2=O)ccc1F" ?
### Response 53

### Prompt Form field: reported Emax of "O=C1c2cc(OCc3ccccc3)nn2CCN1CC1CC(F)(F)C1"
### Response 59

### Prompt Fill blank: measured Emax of the molecule "CC1(CN2CCn3nc(OCc4ccccc4)cc3C2=O)COC1" is ____.
### Response 37

### Prompt Looking for the measured Emax of "Cc1cc(N2CCn3nc(OCc4ccccc4)cc3C2=O)ncc1F" , can you help?
### Response 45

### Prompt Can you share its Emax? I mean this molecule: "COc1nc(N2CCn3nc(OCc4ccccc4)cc3C2=O)ncc1F"
### Response 55

### Prompt Given "Cc1nccc(N2CCn3nc(OCc4ccccc4)cc3C2=O)n1" , state its recorded Emax.
### Response 47

### Prompt Returns the measured Emax for the input molecule. Input: "Cc1cncc(N2CCn3nc(OCc4ccccc4)cc3C2=O)n1"
### Response 43

### Prompt Please give the measured Emax for this molecule: "Cc1nc(N2CCn3nc(OCc4ccccc4)cc3C2=O)ccc1F"
### Response 55

---

Provide the reported melting point of each item.
Kindly answer with a numeric value in °C, unit omitted.

### Prompt Return reported melting point; argument: "CN(C)c1cccc(N2CCn3nc(OCc4ccccc4)cc3C2=O)n1"
### Response 115.3

### Prompt Which value of melting point has been reported for "O=C1c2cc(OCc3ccccc3)nn2CCN1c1ccccc1F" in the records?
### Response 151.9

### Prompt Look at this compound and give its reported melting point. "Cc1cccc(COc2cc3n(n2)CCN(c2ccc(F)cc2)C3=O)n1"
### Response 158.5

### Prompt What melting point value was documented for this compound, "O=C1c2cc(OCc3ccccc3)nn2CCN1c1ccccn1" ?
### Response 153.5

### Prompt // returns reported melting point for input "Cc1cc(N2CCn3nc(OCc4ccccc4)cc3C2=O)ncc1F"
### Response 145.2

### Prompt Please look up its melting point: "O=C1c2cc(OCc3ccccc3)nn2CCN1c1cccc(F)c1"
### Response 131.5

### Prompt Any idea what its melting point is? The compound is "O=C1c2cc(OCc3ccccc3)nn2CCN1c1ccc(F)cn1"
### Response 145.5

### Prompt Quick one: melting point for "O=C1c2cc(OCc3ccccc3F)nn2CCN1c1ccc(F)cc1" ?
### Response 119

### Prompt // returns reported melting point for input "COc1ccc(COc2cc3n(n2)CCN(c2ccc(F)cc2)C3=O)cc1"
### Response 164.6

---

molecular target: human mGluR5a receptor (Homo sapiens); assay: Cell-based functional assay (Ca2+ mobilization, FDSS), potentiation of glutamate EC20 response; settings: H10H cell line; maximum % effect in the concentration-response curve as percent of maximal glutamate response; glutamate EC20
I'd be grateful if you could share measured Emax for these entries.
Just the number in %, nothing appended.

### Prompt Returns the measured Emax for the input compound. Input: "Cc1cccc(N2CCn3nc(OCc4ccccc4)cc3C2=O)n1"
### Response 53

### Prompt What measured Emax goes with "O=C1c2cc(OCc3ccccc3)nn2CCN1c1ccccc1F" ?
### Response 44

### Prompt Could you share which Emax value was measured for "COc1ccc(F)cc1CN1CCn2nc(OCc3ccccc3)cc2C1=O" ?
### Response 58

---

readout_type: melting point (°C)
Reply numerically in °C, unit not repeated.

### Prompt What value of melting point has been reported for the following compound? CC1CN(c2ccc(F)cc2)C(=O)c2cc(OCc3ccccc3)nn21 (single isomer, unassigned) [Example B10]
### Response 134.8

### Prompt Report melting point for COc1cccc(F)c1CN1CCn2nc(OCc3ccccc3)cc2C1=O [Example B70] please.
### Response 162.2

### Prompt GET /values?readout=melting point&item= Cc1nccc(N2CCn3nc(OCc4ccccc4)cc3C2=O)n1 [Example B19]
### Response 182.8

### Prompt Could you tell me which melting point is on file for COc1cc(CN2CCn3nc(OCc4ccccc4)cc3C2=O)ccc1F [Example B69] ?
### Response 115.1

### Prompt GET /values?readout=melting point&item= COc1ccccc1COc1cc2n(n1)CCN(c1ccc(F)cc1)C2=O [Example B29]
### Response 140.2

---

Record form. Attribute: pEC50. Fill in for each entry.
biological target: human mGluR5a receptor (Homo sapiens); experiment: Cell-based functional assay (Ca2+ mobilization, FDSS), potentiation of glutamate EC20 response; settings: H10H cell line; potentiation in presence of glutamate EC20; concentration in mol/L
// scale note: pEC50 = -log10(conc_M); give the bare number

### Prompt Tell me reported pEC50 for Cc1cccc(N2CCCn3nc(OCc4ccccc4)cc3C2=O)n1 [Example B52] , tested with human mGluR5a receptor (Homo sapiens).
### Response 6.57

### Prompt Notebook: pull reported pEC50 for human mGluR5a receptor (Homo sapiens), entry O=C1c2cc(OCc3ccccc3)nn2CCN1Cc1ccccc1 [Example B59]
### Response 7.06

### Prompt # returns recorded pEC50 (system: human mGluR5a receptor (Homo sapiens)) for O=C1c2cc(OCc3ccccc3)nn2CCN1c1cccc(C2CC2)n1 [Example B3]
### Response 6.95

### Prompt Given the entry O=C1c2cc(OCc3ccccc3)nn2CCCN1Cc1ccccc1 [Example B58] , what pEC50 was observed with human mGluR5a receptor (Homo sapiens)?
### Response 6.42

### Prompt Request - read-out pEC50 | tested on human mGluR5a receptor (Homo sapiens) | compound Cc1nc(N2CCn3nc(OCc4ccccc4)cc3C2=O)ccc1F [Example B17]
### Response 6.91

### Prompt Hello, I am looking for reported pEC50 with human mGluR5a receptor (Homo sapiens) for Cc1cncc(N2CCn3nc(OCc4ccccc4)cc3C2=O)n1 [Example B22] . Could you help?
### Response 6.15

### Prompt I'm curious: which pEC50 was measured for COc1ccc(F)cc1CN1CCn2nc(OCc3ccccc3)cc2C1=O [Example B68] tested on human mGluR5a receptor (Homo sapiens)?
### Response 6.75

### Prompt Form field - read-out: pEC50; system: human mGluR5a receptor (Homo sapiens); submitted item: O=C1c2cc(OCc3ccccc3F)nn2CCN1c1ccc(F)cc1 [Example B4]
### Response 6.85

---

biological target: UniProt P41594; experiment: Cell-based functional assay (Ca2+ mobilization, FDSS), potentiation of glutamate EC20 response; details: H10H cell line; maximum % effect in the concentration-response curve as percent of maximal glutamate response; glutamate EC20
readout_type: Emax (%)
Field format: number, assumed %, no unit text.

### Prompt So what does the record say about Emax for "COc1cccc(CN2CCn3nc(OCc4ccccc4)cc3C2=O)c1Cl" ?
### Response 63

### Prompt Quick check: Emax of "O=C1c2cc(OCc3ccccc3)nn2CCCN1Cc1ccccc1" ?
### Response 57

### Prompt What measured Emax goes with "O=C1c2cc(OCc3ccccc3)nn2CCCN1c1ccc(F)cc1" ?
### Response 47

### Prompt GET /values?readout=Emax&item= "Cc1cc(N2CCn3nc(OCc4ccccc4)cc3C2=O)ccc1F"
### Response 47

### Prompt Report Emax for CC1CN(c2ccc(F)cc2)C(=O)c2cc(OCc3ccccc3)nn21 (single isomer, unassigned) please.
### Response 53
